- System: SK-MEL-28 melanoma
- protocol: NCI-60 one-dose screen, 48 h
- measurementSetup: 10 µM unless noted
This is part of a sample that, as a whole, favours compounds with a hit. Of some 83,000 tested, about 20% had one in any assay. Calls of active or inactive are those of the source. How the source made its calls: active means growth percent below 10; inactive means the rest.
Answer with one of the outcomes TRUE for active, FALSE for inactive

query: Please let me know the test result on file for `COc1ccc(Nc2c3c4c(cccc4[nH]c2=O)C(=O)c2ccccc2-3)cc1` .
result: FALSE

query: How about `COc1ccc(O)c(N=Nc2nccs2)c1` ?
result: FALSE

query: How about `COC(=O)[C@]12CCC(C)(C)C[C@H]1[C@H]1C(=O)C[C@@H]3[C@@]4(C)c5c([nH]c6ccccc6c5=O)C(C)(C)[C@@H]4CC[C@@]3(C)[C@]1(C)CC2` ?
result: FALSE

query: How about `O=C1Nc2c(ccc(Cl)c2Cl)/C1=C\c1ccc(C(F)(F)F)cc1` ?
result: FALSE

query: How about `O=C(N/N=C/c1c[nH]c2ccccc12)c1cc(-c2ccccc2)on1` ?
result: FALSE

query: How about `CN1CCN(c2nc(NCCCCNc3ccnc4cc(Cl)ccc34)c3ccccc3n2)CC1` ?
result: TRUE

query: How about `Cc1cc(N[C@@H]2CCC[C@H](Nc3ccnc4cc(Cl)ccc34)C2)nc(N2CCCCCC2)n1` ?
result: TRUE

query: How about `C#CCOc1ccc2ncnc(Nc3cccc(CNC(=O)CCl)c3)c2c1` ?
result: FALSE

query: How about `O=[N+]([O-])c1ccc(Nc2nc(NCCN3CCOCC3)ncc2[N+](=O)[O-])cc1` ?
result: FALSE

The reported numbers originate from PubChem BioAssay (NCI).
